All figures here come from ChEMBL document CHEMBL4706560.

- Assayed System: Bromodomain-containing protein 4 (Homo sapiens, UniProt O60885)
- Test Summary: Inhibition of BRD4 BD1 (unknown origin) preincubated for 15 mins followed by peptide addition and measured after 60 mins by TR-FRET assay
Label scheme, based on IC50: LOW (below 0.03 µM), MID (0.03 µM to below 0.09 µM), HIGH (0.09 µM or more)

{"Given Smiles": "COc1ccc(F)cc1S(=O)(=O)Nc1ccc2c(c1)C(=C(C)C)C(=O)N2", "Class Label": "MID"}
{"Given Smiles": "CC(C)=C1C(=O)Nc2ccc(NS(=O)(=O)c3cccc4c(N(C)C)cccc34)cc21", "Class Label": "HIGH"}
{"Given Smiles": "C/C=C1\\C(=O)Nc2ccc(NS(=O)(=O)c3ccccc3OC)cc21", "Class Label": "MID"}
{"Given Smiles": "CC(C)=C1C(=O)Nc2ccc(NS(=O)(=O)c3cc(C)ccc3F)cc21", "Class Label": "LOW"}
{"Given Smiles": "CC(C)=C1C(=O)Nc2ccc(NS(=O)(=O)c3ccc4ccccc4c3)cc21", "Class Label": "HIGH"}
{"Given Smiles": "COc1ccccc1S(=O)(=O)Nc1ccc2c(c1)C(=C1CCC1)C(=O)N2", "Class Label": "LOW"}
{"Given Smiles": "CC(C)=C1C(=O)Nc2ccc(NS(=O)(=O)c3cccc4ccccc34)cc21", "Class Label": "MID"}
{"Given Smiles": "COc1ccc(S(=O)(=O)Nc2ccc3c(c2)C(=C(C)C)C(=O)N3)cc1", "Class Label": "HIGH"}
